Quick list: LC90 per entry.
- System: Meloidogyne javanica
- protocolSummary: Nematicidal activity against Meloidogyne javanica J2 (root-knot nematode) assessed as mortality rate compound treated as vapor at 25 +/- 2 degC
- Type: functional
Could you give me the number in µg/mL? Just the number is fine.

compound: CCN=C=S [ETHYL ISOTHIOCYANATE]
outputUnit: µg/mL
observed: 5.72

compound: C=CC(=O)N=C=S [ACRYLOYL ISOTHIOCYANATE]
outputUnit: µg/mL
observed: 4.63

compound: CNC(=S)[S-].[Na+] [METAM SODIUM]
outputUnit: µg/mL
observed: 3.65

compound: CC(N=C=S)c1ccccc1 (stereo not drawn) [1-PHENYLETHYL ISOTHIOCYANATE]
outputUnit: µg/mL
observed: 8.14

compound: N#CSCc1ccccc1 [BENZYL THIOCYANATE]
outputUnit: µg/mL
observed: 8.71

Identify measured LC90 associated with C=CCN=C=S [ALLYL ISOTHIOCYANATE] 4.94

Identify measured LC90 associated with S=C=NCc1ccccc1 [BENZYL ISOTHIOCYANATE] 8.55

Identify measured LC90 associated with S=C=NCCc1ccccc1 [PHENETHYLISOTHIOCYANATE] 6.96

* * *

- Tested on: Meloidogyne javanica
- protocolSummary: Nematicidal activity against Meloidogyne javanica J2 (root-knot nematode) assessed as mortality rate at 5 ug/mL (vapor concentration in the air, weight/volume) at 25 +/- 2 degC measured after 72 hr
- Assay type: functional
Note to self: values exactly at 80% are Condition met. So mortality at 5 µg/mL at or above 80% is Condition met, below is Condition not met.

compound: CC/C=C/N=C=S [BUTENYL ISOTHIOCYANATE]
targetEntity: Meloidogyne javanica
group: Condition not met

Is it the case that CC(C)/C=C/N=C=S [ISOAMYLENE ISOTHIOCYANATE] has mortality at 5 µg/mL reaching or exceeding 80%? Condition not met

Is it the case that CCN=C=S [ETHYL ISOTHIOCYANATE] has mortality at 5 µg/mL reaching or exceeding 80%? Condition met

Is it the case that CC(C)CC(=O)N=C=S [ISOVALERYL ISOTHIOCYANATE] has mortality at 5 µg/mL reaching or exceeding 80%? Condition not met

* * *

- Test system: Meloidogyne javanica
- protocolSummary: Nematicidal activity against Meloidogyne javanica J2 (root-knot nematode) assessed as mortality rate at 5 ug/mL (vapor concentration in the air, weight/volume) at 25 +/- 2 degC measured after 72 hr
- Assay type: functional
Quick list: mortality at 5 µg/mL per entry.
Could you give me the number in %? Just the number is fine.

compound: S=C=NCc1ccccc1 [BENZYL ISOTHIOCYANATE]
quantityMeasured: mortality at 5 µg/mL
observed: 70.2

Identify measured mortality at 5 µg/mL associated with CC(C)N=C=S [ISOPROPYL ISOTHIOCYANATE] 42.9

Identify measured mortality at 5 µg/mL associated with CCCN=C=S [PROPYL ISOTHIOCYANATE] 40.2

Identify measured mortality at 5 µg/mL associated with S=C=Nc1ccccc1 [PHENYLISOTHIOCYANATE] 58.2

Identify measured mortality at 5 µg/mL associated with C=CC(=O)N=C=S [ACRYLOYL ISOTHIOCYANATE] 92.1

Identify measured mortality at 5 µg/mL associated with S=C=NCCc1ccccc1 [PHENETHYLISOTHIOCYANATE] 79.6

Identify measured mortality at 5 µg/mL associated with CNC(=S)[S-].[Na+] [METAM SODIUM] 93.4

Identify measured mortality at 5 µg/mL associated with CC(N=C=S)c1ccccc1 (stereo unspecified) [1-PHENYLETHYL ISOTHIOCYANATE] 76.6

Identify measured mortality at 5 µg/mL associated with CCCCN=C=S [BUTYL ISOTHIOCYANATE] 58.6

Identify measured mortality at 5 µg/mL associated with N#CSCc1ccccc1 [BENZYL THIOCYANATE] 66.4

Identify measured mortality at 5 µg/mL associated with C=CCN=C=S [ALLYL ISOTHIOCYANATE] 90.5

The values you see were collected from ChEMBL document CHEMBL3044912.
